// provenance: patent US20250051467A1

# test.target: T1, h-FAP-His (human, UniProt Q12884 26-760)
# T1 construct: range 26-760; Bought recombinant protein with a His tag; also called human FAP-His protein; FAP recombinant protein with a His tag
# T1 sequence (Q12884 26-760 limits assumed): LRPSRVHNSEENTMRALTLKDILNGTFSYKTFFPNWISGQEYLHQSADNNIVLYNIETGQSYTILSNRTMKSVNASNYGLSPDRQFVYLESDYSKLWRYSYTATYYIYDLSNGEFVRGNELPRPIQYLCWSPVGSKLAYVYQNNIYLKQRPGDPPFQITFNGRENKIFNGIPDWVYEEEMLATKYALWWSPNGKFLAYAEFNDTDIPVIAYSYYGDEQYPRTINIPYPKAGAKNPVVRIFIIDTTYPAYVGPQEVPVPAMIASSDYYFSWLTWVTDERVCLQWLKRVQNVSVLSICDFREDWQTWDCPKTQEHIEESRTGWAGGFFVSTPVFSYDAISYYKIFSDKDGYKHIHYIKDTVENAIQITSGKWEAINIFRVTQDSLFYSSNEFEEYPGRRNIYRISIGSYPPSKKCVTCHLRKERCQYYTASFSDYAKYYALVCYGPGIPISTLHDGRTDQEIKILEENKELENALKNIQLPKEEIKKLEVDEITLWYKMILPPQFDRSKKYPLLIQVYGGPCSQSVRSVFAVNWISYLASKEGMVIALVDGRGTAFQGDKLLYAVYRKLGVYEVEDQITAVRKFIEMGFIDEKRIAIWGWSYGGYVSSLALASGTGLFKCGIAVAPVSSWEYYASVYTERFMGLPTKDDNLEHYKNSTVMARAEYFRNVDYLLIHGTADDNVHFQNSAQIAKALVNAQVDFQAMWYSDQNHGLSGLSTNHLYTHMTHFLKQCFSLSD
# assay: SPR, antibody captured by anti-human IgG Fc, h-FAP-His analyte
measurement.kind: kon (M⁻¹ s⁻¹)
Give just the numeric value; M⁻¹ s⁻¹ need not be written.

Example results:
# binder, kon (M⁻¹ s⁻¹)
data = [
    ("Ab14 (antibody, human IgG1, kappa, L234A L235A, V domains shown, Fully human, IgG1 / kappa; also called anti-FAP antibody Ab14; Ab114) VH: QVQLQQSGVEVKKPGASVTVSCRASGYSFADHFIHWVRQAPGQGFQWMGWINPNRGVTHHAQDFQGRVAMTRDMSTDTVYMELTSLRSDDTAVYYCARDASLTARPYYFYGFDVWGQGTLVTVSS VL: EIVLTQSPSSVSASVGDRVTITCRASQGISSWLAWYQQKPGKAPKLLIYAASSLQSGVPSRFSGSGSGTDFTLTISSLQPEDFATYYCQQANSFPLTFGGGTKVEIKR", 332000),
    ("28H1 (antibody, V domains shown, also called control anti-FAP antibody 28H1) VH: EVQLLESGGGLVQPGGSLRLSCAASGFTFSSHAMSWVRQAPGKGLEWVSAIWASGEQYYADSVKGRFTISRDNSKNTLYLQMNSLRAEDTAVYYCAKGWLGNFDYWGQGTLVTVSS VL: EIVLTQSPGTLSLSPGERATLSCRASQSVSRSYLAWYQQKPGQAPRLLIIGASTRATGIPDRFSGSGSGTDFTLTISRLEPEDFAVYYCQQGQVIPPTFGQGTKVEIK", 195000),
]

### Prompt Entry under review: Ab10 (antibody, human IgG1, kappa, L234A L235A, V domains shown, Fully human, IgG1 / kappa; also called anti-FAP antibody Ab10; Ab110) VH: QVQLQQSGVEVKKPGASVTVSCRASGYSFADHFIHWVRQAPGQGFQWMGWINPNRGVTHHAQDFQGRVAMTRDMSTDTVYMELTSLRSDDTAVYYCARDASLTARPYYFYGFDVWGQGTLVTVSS VL: DIQMTQSPSSVSASVGDRVTITCRASQGISSWLAWYQQKPGKAPKLLIYAASSLQSGVPSRFSGSGSGTDFTLTISSLQPEDFATYYCQQANSFPPAFGQGTKVEIKR . Reported kon?
### Response 297000

### Prompt I would be grateful if you could share the reported kon for Ab9 (antibody, human IgG1, kappa, L234A L235A, V domains shown, Fully human, IgG1 / kappa; also called anti-FAP antibody Ab9) VH: QMQLVQSGAEVKKPGASVTVSCRASGYSFADHFIHWVRQAPGQGFQWMGWINPNRGVTHHAQDFQGRVAMTRDMSTDTVYMELTSLRSDDTAVYYCARDESLTARPYYFYGFDVWGQGTLVTVSS VL: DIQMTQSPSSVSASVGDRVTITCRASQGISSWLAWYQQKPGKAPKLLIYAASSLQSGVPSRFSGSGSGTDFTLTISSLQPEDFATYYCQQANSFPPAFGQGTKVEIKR .
### Response 235000
